Biological target: T1, human CD33 antigen (human, UniProt P20138 18-259, limits assumed)
T1 construct: whole entry named; also called Siglec-3
T1 sequence (P20138 18-259 limits assumed): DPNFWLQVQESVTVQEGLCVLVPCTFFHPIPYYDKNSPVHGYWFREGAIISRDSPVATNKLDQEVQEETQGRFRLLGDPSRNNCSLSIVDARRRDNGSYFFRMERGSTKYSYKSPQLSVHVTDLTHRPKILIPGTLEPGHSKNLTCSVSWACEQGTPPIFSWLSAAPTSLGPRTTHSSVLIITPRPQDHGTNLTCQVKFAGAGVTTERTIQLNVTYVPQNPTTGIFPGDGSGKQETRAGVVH
Test: SPR (Biacore T200), 37 C, scFv-Fc, 0 uM MTX
measurementKind: kon

P07_C04 scFv-Fc fusion (scFv, V domains shown, Tested as scFv-Fc fusion) VH: QVQLVESGGGLVQAGGSLRLSCAASRRSSRSWAMHWVRQAPGKGLEWVAVISYDGRLKYYADSVKGRFTISRDNAEYLVYLQMNSLRAEDTAVYYCAAEPDGEGTNGGLDIWGQGTLVTVSS VL: DIQMTQSPSSLSASVGDRVTITCRASQNISRYLNWYQQKPGKAPKLLIYSASSLQTGVPSRFSGSGSGTDFTLTISSLQPEDFATYYCQQSYSSGAFGQGTKVEIK: 95000 M⁻¹ s⁻¹

Dear reader, for each entry below, please note its kon.
1. P01_A09 scFv-Fc fusion (scFv, V domains shown, Tested as scFv-Fc fusion) VH: QVQLVESGGGLVQAGGSLRLSCAASRRSSRSWAMHWVRQAPGKGLEWVAVISYDGRLKYYADSVKGRFTISRDNAEYLVYLQMNSLRAEDTAVYYCAAERPTSDGSTGGMDVWGQGTLVTVSS VL: DIQMTQSPSSLSASVGDRVTITCRASQSISSYLNWYQQKPGKAPKLLIYGASTLQSGVPSRFSGSGSGTDFTLTISSLQPEDFATYYCQQSYSSGTFGQGTKVEIK
2. P04_C05 scFv-Fc fusion (scFv, V domains shown, Tested as scFv-Fc fusion) VH: QVQLVESGGGLVQAGGSLRLSCAASRRSSRSWAMHWVRQAPGKGLEWVAVISYDGRLKYYADSVKGRFTISRDNAEYLVYLQMNSLRAEDTAVYYCAAGLPWTDYWGQGTLVTVSS VL: QSVLTQPPSASGTPGQRVTISCSGSNSNIGSNYVSWYQQLPGTAPKLLIYSNNQRPSGVPDRFSGSKSGTSASLAISGLRSEDEADYYCAAWDDRLSVVFGTGTKLTVL
3. P02_D09 scFv-Fc fusion (scFv, V domains shown, Tested as scFv-Fc fusion) VH: QVQLVESGGGLVQAGGSLRLSCAASRRSSRSWAMHWVRQAPGKGLEWVAVISYDGRLKYYADSVKGRFTISRDNAEYLVYLQMNSLRAEDTAVYYCAAEEGDGGFFDYWGQGTLVTVSS VL: QSVLTQPPSASGTPGQRVTISCSGSSSNIGSNYVNWYQQLPGTAPKLLIYRNNERPSGVPDRFSGSKSGTSASLAISGLRSEDEADYYCAAWDGSLSGRGVFGTGTKLTVL
4. P02_C02 scFv-Fc fusion (scFv, V domains shown, Tested as scFv-Fc fusion) VH: QVQLVESGGGLVQAGGSLRLSCAASRRSSRSWAMHWVRQAPGKGLEWVAVISYDGRLKYYADSVKGRFTISRDNAEYLVYLQMNSLRAEDTAVYYCAAEGGMGLDPWGQGTLVTVSS VL: DIQMTQSPSSLSASVGDRVTITCRASQTISSYLNWYQQKPGKAPKLLIYAASNLHSGVPSRFSGSGSGTDFTLTISSLQPEDFATYYCQQSYSSGTFGQGTKVEIK
5. P02_D08 scFv-Fc fusion (scFv, V domains shown, Tested as scFv-Fc fusion) VH: QVQLVESGGGLVQAGGSLRLSCAASRRSSRSWAMHWVRQAPGKGLEWVAVISYDGRLKYYADSVKGRFTISRDNAEYLVYLQMNSLRAEDTAVYYCAAERGDGLDGNVGLDIWGQGTLVTVSS VL: DIQMTQSPSSLSASVGDRVTITCRASQSISKYLNWYQQKPGKAPKLLIYGASTLQSGVPSRFSGSGSGTDFTLTISSLQPEDFATYYCQQSYSSGTFGQGTKVEIK

1. 110000 M⁻¹ s⁻¹
2. 83000 M⁻¹ s⁻¹
3. 40000 M⁻¹ s⁻¹
4. 92000 M⁻¹ s⁻¹
5. 61000 M⁻¹ s⁻¹

Data origin: patent US20230192839A1
